Recorded Anti-CD28 Fab signal in the presence of CD28 (phage binding ELISA), one value per entry.
# TARGET SYSTEM: Anti-CD28 Fab (SEQ ID NOs: 696, 697)
# Sequence (VH, as listed by the source, chain 1 of 2): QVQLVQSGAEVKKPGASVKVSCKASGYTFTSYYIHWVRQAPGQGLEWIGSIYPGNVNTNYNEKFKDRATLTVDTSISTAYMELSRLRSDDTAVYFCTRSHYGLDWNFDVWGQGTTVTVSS
# Sequence (VL, as listed by the source, chain 2 of 2): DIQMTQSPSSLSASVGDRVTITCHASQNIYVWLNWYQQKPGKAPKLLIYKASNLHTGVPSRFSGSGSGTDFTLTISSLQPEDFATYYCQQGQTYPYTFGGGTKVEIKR
# PROCEDURE TEXT: phage binding ELISA; anti-CD28 Fab on plate pre-incubated with CD28 antigen as competitor, anti-M13 HRP detection
Reply briefly: the number, and no unit.

Some solved entries appear below for comparison.
YCDGHSLQYLGKCL [Phage-793] = 0.09
YCDGHMPEYLAKCL [Phage-788] = 0.07
YCAGHAPEYMFKCM [Phage-797] = 0.06
YCEGHLQIYMSKCL [Phage-796] = 0.14
YCDGHSPAYMAKCL [Phage-800] = 0.1

Lab note: next binder to report on.
So what does the record say about Anti-CD28 Fab signal in the presence of CD28 (phage binding ELISA) for YCAGHSSEYMWKCL [Phage-790] ?
0.07

The reported measurements were obtained from patent US20260242478A1.
